Tgt: human GIP receptor (hGIPR) (Homo sapiens, UniProt P48546)
Construct: expressed in transfected cells
Sequence (P48546 22-466): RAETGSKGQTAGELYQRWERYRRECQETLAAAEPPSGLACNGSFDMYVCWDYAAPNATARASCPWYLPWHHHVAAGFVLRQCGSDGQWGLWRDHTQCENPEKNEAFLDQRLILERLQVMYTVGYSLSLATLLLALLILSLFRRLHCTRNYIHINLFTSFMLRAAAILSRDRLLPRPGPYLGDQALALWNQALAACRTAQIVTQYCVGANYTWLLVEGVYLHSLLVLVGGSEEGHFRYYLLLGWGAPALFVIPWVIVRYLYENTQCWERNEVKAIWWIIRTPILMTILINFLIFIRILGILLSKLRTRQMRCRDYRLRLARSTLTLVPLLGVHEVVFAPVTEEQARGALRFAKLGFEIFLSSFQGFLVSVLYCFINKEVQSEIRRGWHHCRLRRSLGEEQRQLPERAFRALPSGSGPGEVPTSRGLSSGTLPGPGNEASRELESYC
Test protocol: GIP receptor assay, method B (CRE-luciferase reporter, BHK cells, 384-well)
Assay type: cell-based
Condition info: hGIPR Potency, 1% HSA, EC50, methods B, in the presence of 1% HSA
Numbered stars: 1 amine (or outer) side, 2 acyl side, 3 side chain; on linkers, the order of the positions; unused ones are H or OH. Square brackets hold non-standard residues; d marks the D form. Side chains are listed from the residue outwards. * marks the point of attachment. C20 diacid = O=C(O)CCCCCCCCCCCCCCCCCCC(=O)*; C16 diacid = O=C(O)CCCCCCCCCCCCCCC(=O)*; γGlu = O=C(O)[C@H](CCC(=O)[*:2])N[*:1]; AEEA = NCCOCCOCC(=O)O; Aib = CC(C)(N)C(=O)O
Measured EC50, listed per entry for reference.

>  <Substance>
Y[Aib]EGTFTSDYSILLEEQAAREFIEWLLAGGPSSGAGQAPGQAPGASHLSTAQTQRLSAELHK([AEEA-AEEA-γGlu-C20 diacid])LATLPRTETGSGSP-NH2 [Compound 115]

>  <Parameter measured>
EC50

>  <Reported value>
0.0389 nM

$$$$

Attention now turns to another entry.
Query: Given the substance Y[Aib]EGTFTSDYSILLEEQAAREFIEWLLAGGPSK([AEEA-AEEA-γGlu-C16 diacid])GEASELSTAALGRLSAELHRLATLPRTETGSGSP-NH2 [Compound 18] , write its reported EC50.
Result: 0.0201 nM
